Provenance of the data: patent US10377709B2

- Tested on: HBV
- Assay Protocol: Anti-HBV activity in HepG2.117 inducible HBV producing cell line (intracellular HBV DNA, realtime PCR)
- Type: cell-based, Hepatitis B virus
- Run Parameters: Hepatitis B virus, HepG2.117, 72 h, HepG2.117 cells (Tet-off); 3 days of treatment; intracellular HBV DNA by realtime PCR
Measured Endpoint: pEC50
In simple prose, pEC50 is minus the logarithm base ten of a concentration in moles per litre.

| Compound | pEC50 |
| --- | --- |
| C[C@@H](NC(=O)C(=O)N1CC[C@H](C(=O)Nc2ccc(F)c(C(F)(F)F)c2)C1)C(F)(F)F [Compound 14] | 7.35 |
| Cc1cc(NC(=O)[C@H]2CCCN(C(=O)C(=O)NC(C)C)C2)ccc1F [Compound 12] | 6.94 |
| C[C@@H](NC(=O)C(=O)N1CC[C@H](C(=O)Nc2cc(F)c(F)c(Cl)c2)C1)C(F)(F)F [Compound 11] | 7.77 |

Lookup: Field request: pEC50 | item: Cc1cc(NC(=O)[C@H]2CCN(C(=O)C(=O)N[C@H]3CCOC3)C2)ccc1F [Compound 9]
Found: 6.87

Lookup: Field request: pEC50 | item: CC(C)(NC(=O)C(=O)N1CC[C@H](C(=O)Nc2cc(F)c(F)c(Cl)c2)C1)C(F)(F)F [Compound 16]
Found: 7.46

Lookup: Field request: pEC50 | item: Cc1cc(NC(=O)[C@H]2CCN(C(=O)C(=O)NC3CCCC3)C2)ccc1F [Compound 5]
Found: 7.34

Lookup: Field request: pEC50 | item: CC[C@@H](C)NC(=O)C(=O)N1CC[C@H](C(=O)Nc2ccc(F)c(C)c2)C1 [Compound 8]
Found: 7.42

Lookup: Field request: pEC50 | item: O=C(NC1(C(F)(F)F)CC1)C(=O)N1CC[C@H](C(=O)Nc2cc(F)c(F)c(Cl)c2)C1 [Compound 13]
Found: 7.46

Lookup: Field request: pEC50 | item: CC(C)(C)NC(=O)C(=O)N1CC[C@H](C(=O)Nc2ccc(F)c(C#N)c2)C1 [Compound 20]
Found: 6.19

Lookup: Field request: pEC50 | item: CC(C)NC(=O)C(=O)N1CCC(C(=O)Nc2ccc(F)c(Cl)c2F)[C@@H]1C (stereo partly shown) [Compound 28]
Found: 7.08

Lookup: Field request: pEC50 | item: Cc1cc(NC(=O)[C@H]2CCN(C(=O)C(=O)NC3(C)COC3)[C@H]2C)ccc1F [Compound 10]
Found: 8.05

Lookup: Field request: pEC50 | item: Cc1cc(NC(=O)[C@H]2CCN(C(=O)C(=O)N[C@H](C)CO)C2)ccc1F [Compound 6]
Found: 6.59

Lookup: Field request: pEC50 | item: O=C(NC1(C(F)(F)F)CC1)C(=O)N1CC[C@H](C(=O)Nc2ccc(F)c(Cl)c2)C1 [Compound 25]
Found: 7.51

Lookup: Field request: pEC50 | item: C[C@@H](NC(=O)C(=O)N1CCC(C(=O)Nc2cc(F)c(F)c(Cl)c2)C1(C)C)C(F)(F)F (stereo partly shown) [Compound 18]
Found: 6.17

Lookup: Field request: pEC50 | item: CC(C)(C)NC(=O)C(=O)N1CC[C@H](C(=O)Nc2cc(F)c(F)c(Br)c2)C1 [Compound 3]
Found: 7.59

Lookup: Field request: pEC50 | item: Cc1cc(NC(=O)[C@H]2CCN(C(=O)C(=O)NC3(C)COC3)C2)ccc1F [Compound 7]
Found: 6.93
